The reported measurements were obtained from ChEMBL document CHEMBL3593203.

- Measured Target: Neuronal acetylcholine receptor subunit alpha-7 (Rattus norvegicus)
- Sequence (Q05941 whole entry): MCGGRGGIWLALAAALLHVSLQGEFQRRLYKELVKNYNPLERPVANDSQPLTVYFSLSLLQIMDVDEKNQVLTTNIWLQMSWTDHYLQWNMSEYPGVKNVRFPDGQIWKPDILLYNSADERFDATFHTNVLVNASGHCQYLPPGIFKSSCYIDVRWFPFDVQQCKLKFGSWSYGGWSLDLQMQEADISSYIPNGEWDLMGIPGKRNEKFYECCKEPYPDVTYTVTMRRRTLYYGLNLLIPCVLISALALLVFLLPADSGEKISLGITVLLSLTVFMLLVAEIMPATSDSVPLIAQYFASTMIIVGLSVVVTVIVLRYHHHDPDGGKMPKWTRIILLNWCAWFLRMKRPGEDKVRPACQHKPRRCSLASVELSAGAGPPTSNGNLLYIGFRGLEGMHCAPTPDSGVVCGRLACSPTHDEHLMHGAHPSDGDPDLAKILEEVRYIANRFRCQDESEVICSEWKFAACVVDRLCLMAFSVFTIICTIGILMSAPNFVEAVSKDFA
- Assay Name: Displacement of [3H]-MLA from alpha7 nicotine acetylcholine receptor in rat brain minus cerebellum after 60 mins by scintillation counting analysis
- Format: tissue-based
pKi: −log10 of the molar value.
Property Name: pKi

1) CCN(CC)CCOc1ccc2c(c1)C(=O)c1cc(OCCN(CC)CC)ccc1-2
6.96

----------
Below is a list of entries, each paired with its recorded log10(Ki) value.
- Measured Target: Neuronal acetylcholine receptor; alpha4/beta2 (Rattus norvegicus, UniProt P09483+P12390)
- Sequence (P09483 whole entry): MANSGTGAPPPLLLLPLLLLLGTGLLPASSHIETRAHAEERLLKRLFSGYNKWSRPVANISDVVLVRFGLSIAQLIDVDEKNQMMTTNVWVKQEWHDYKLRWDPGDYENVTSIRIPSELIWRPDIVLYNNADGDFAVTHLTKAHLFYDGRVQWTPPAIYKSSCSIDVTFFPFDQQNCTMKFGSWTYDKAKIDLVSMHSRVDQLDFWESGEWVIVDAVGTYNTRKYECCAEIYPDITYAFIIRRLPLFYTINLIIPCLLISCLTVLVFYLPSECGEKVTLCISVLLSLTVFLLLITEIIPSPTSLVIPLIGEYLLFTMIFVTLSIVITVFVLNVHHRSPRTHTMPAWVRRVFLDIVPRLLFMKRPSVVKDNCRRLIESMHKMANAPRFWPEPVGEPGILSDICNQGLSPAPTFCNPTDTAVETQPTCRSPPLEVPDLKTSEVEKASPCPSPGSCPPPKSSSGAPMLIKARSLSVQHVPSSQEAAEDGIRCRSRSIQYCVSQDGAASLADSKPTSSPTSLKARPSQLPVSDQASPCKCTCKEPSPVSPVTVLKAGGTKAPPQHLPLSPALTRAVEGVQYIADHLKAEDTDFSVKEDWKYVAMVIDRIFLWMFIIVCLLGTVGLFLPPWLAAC
- Sequence (P12390 whole entry): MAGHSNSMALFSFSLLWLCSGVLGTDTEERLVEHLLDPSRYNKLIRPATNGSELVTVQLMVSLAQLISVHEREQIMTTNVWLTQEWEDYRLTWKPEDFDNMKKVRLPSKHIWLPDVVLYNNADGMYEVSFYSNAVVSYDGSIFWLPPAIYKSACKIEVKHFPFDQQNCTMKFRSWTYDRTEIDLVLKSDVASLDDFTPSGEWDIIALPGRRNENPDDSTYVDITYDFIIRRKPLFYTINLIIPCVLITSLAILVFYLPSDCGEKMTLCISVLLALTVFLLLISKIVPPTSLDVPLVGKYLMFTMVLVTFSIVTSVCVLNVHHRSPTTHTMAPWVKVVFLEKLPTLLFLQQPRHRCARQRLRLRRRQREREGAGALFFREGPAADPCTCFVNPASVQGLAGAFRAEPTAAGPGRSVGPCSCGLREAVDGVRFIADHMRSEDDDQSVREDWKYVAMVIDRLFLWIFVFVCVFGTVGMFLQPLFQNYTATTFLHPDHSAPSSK
- Assay Name: Displacement of [3H]-epibatidine from Sprague-Dawley rat brain alpha4beta2 nicotine acetylcholine receptor after 90 mins by radioligand displacement assay
Property Name: log10(Ki) (log10 of the value in nM)

1) CN(C)CCOc1cc(F)cc(N2CC3CNCC(C3)C2)c1
2.27
2) CN(C)CCOc1cncc(-c2cncc(OCCN(C)C)c2)c1
2.46
3) CN(C)CCOc1cncc(N2CC3CNCC(C3)C2)c1
-0.73
4) CN(C)CCOc1cncc(N2CCNCC2)c1
2.16
5) CN(C)CCOc1cncc(N2CCCNCC2)c1
0.84
6) CN(C)CCOc1cncc(N2CCC(O)CC2)c1
2.79

----------
# pKi values compiled below
- Measured Target: Neuronal acetylcholine receptor; alpha4/beta2 (Rattus norvegicus, UniProt P09483+P12390)
- Assay Name: Displacement of [3H]-epibatidine from Sprague-Dawley rat brain alpha4beta2 nicotine acetylcholine receptor after 90 mins by radioligand displacement assay
pKi: −log10 of the molar value.
Property Name: pKi

1) CN(C)CCOc1cncc(N2CCC2)c1
6.11
2) CN(C)CCOc1cncc(N2CCN(C)CC2)c1
7.18
3) CN(C)CCOc1cncc(N2CCCN(C)CC2)c1
6.67
